Reference for the values: patent US20250051821

Provide the reported Relative late peak area (reverse phase chromatography, 24 h) of each item.
Biological target: T1, IFF05588
T1 chain: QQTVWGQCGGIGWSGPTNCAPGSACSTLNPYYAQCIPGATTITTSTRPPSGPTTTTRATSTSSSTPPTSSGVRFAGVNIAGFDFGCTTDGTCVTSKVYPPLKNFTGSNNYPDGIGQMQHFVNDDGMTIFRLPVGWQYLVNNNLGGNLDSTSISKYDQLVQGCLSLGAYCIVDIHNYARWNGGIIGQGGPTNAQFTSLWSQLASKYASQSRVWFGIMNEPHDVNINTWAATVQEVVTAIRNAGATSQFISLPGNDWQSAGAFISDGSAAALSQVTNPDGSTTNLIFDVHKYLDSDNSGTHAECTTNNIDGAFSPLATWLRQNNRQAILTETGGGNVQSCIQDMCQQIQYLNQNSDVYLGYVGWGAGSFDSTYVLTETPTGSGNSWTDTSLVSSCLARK
Note: the reply should be a number with no unit written.

Noted for IFF21364 (protein) QLDKPALTDNLDYLLDGNVANLPSNGGPYWGKWEDGLIPADCKSIAESQGLNPTDFEVYDIFFDDCQDGWSFCRHKDSSDSFETLVDTFGRVPVRMRSWVRHILTIPGNNWAFNSNGNIAFSGTTSSNLDVALHETGHSLDLLGAYGDGALSSSQEWEDAYNADSNVPDNYAQSNQVENVAQNTVVGIYDKVVPGGFPGVQPNYANIQNQYTLLQDKAGEQIIPGGTCDRHLENSDTVSMSGSSSKRDVRAAKARAASHDSALKGKYSNIVKDFKPFNSQDFHH : its Relative late peak area (reverse phase chromatography, 24 h) reads 0.49

Noted for IFF21374 (protein) QRLNKPALTPNLDYLEQGNIDNLHPTHSTWDKWGPGWIPADCKSIAQNEGKNPDDFEIYNVHYDDCSDAWVFCRHKDSNVDLVTTIDIFGRLPVKMRSWVRHVITIPGDSWAYNSNGNIAFFGTTSSSMDVAIHETGHSLDLLGAYWGKTFSDSSTWLDNYNQDPNVPDEYAQTNQVENVAQNTVVGVYDKVVPGGFGSVQPNWHNIFHQYATLQWGAGDQIIPGGTCDRHLQNSETVPTGNSALAFNAVNRPDTSLKGNYSNIVTDFKEFSTRGNCRI : its Relative late peak area (reverse phase chromatography, 24 h) reads 0.51
